# assay.info: yeast display, Sf9 membrane polyspecificity reagent, FACS + sequencing; frameworks hold sequencing errors
measurement.kind: polyreactivity (PSR sort gate)

Consider the worked cases shown below.
[[record]]
entry_sequence = "QVQLVESGGGLVQAGGSLRLSCAASGSIFVFNAMGWYRQAPGKERELVAAISSSGGSTYYADSVKGRFTISRDNAKNTVYLQMNSLKPEDTAVYYCNKRLYYQRWPAAAREYWGQGTQVTVSS"
measurement_kind = "polyreactivity (PSR sort gate)"
meas_value = "high polyreactivity"

[[record]]
entry_sequence = "QVQLLESGGGLVQAGGSLRLSCAASGRNFGVNAMGWYRQAPGKERELVAVISSGGSTYYADSVKGRFTISRDNAKNTVFLQMNSLKPEDTAVYYCAAGNLPDYDYWGQGTQVTVSS"
measurement_kind = "polyreactivity (PSR sort gate)"
meas_value = "low polyreactivity"

[[record]]
entry_sequence = "QVQHVESGGGLVQAGGSHRLSCAASGRIFTQNSMGWYRQAPGKERELVAAINATDGSTYADSVKGRFTISRDNAKNTVYLQMKSLKREDTSVYYCYFTGGPYDFTRWSEFDHWGQGTQVTVSS"
measurement_kind = "polyreactivity (PSR sort gate)"
meas_value = "low polyreactivity"

[[record]]
entry_sequence = "QVQLVESGGGLVQAGGSLRVSSAASGRIFYLYVMAWYRQAPGKERELVAGITGSGGNTYYADSVKGRCTISRDNAKNTVDLQMNSLKPEDTAVYFCNDRFRARPRMGYWGQATQVTVSS"
measurement_kind = "polyreactivity (PSR sort gate)"
meas_value = "high polyreactivity"

[[record]]
entry_sequence = "QVQLVESGGGLVQAGGSLPLSCAASGSIFLYNAMGWYRQAPGKERELVAGITFIGGSTYYADSVKGRFTISRDNAKNSVYLQMNSLKPEDTAVYYCNRLGVYWVGTEFDYWGQGTQVTLSS"
measurement_kind = "polyreactivity (PSR sort gate)"
meas_value = "low polyreactivity"

[[record]]
entry_sequence = "QVQLVESGGGLVQAGGSLRLSCAASGRTFDRNAMGWYRKAPGKERELVARITIDGSTNYADSVKGRFTISRDNAKNTVYLQMNSLKPEDTGVYYCAAYSASYGGYDYWGQGTQVTVSS"
measurement_kind = "polyreactivity (PSR sort gate)"
meas_value = "high polyreactivity"

[[record]]
entry_sequence = "QVQLVESGGGLVQAGGSLRLSSAASGSTFEIYAMGWYRQAPGKERDLVAGITTSDGRTDYADSVKGRFTISRDNAKNTVYLLMNILKPEDTAVYYCAKVTLGYTWYQYDYWGQGTQVTVSS"
measurement_kind = "polyreactivity (PSR sort gate)"
meas_value = "low polyreactivity"

[[record]]
entry_sequence = "QVQLVESGGGLVQAGGSLRLSCAASGITFVHNVMGWYRQAPGKDRELVAAINSGGRTYYADSVKGRFTISRDNAKKTVYLQMNSLKPEDSAVYYCAALGDKRGGGHYWGQGTQVTVSS"
measurement_kind = "polyreactivity (PSR sort gate)"
meas_value = "high polyreactivity"


Look up polyreactivity (PSR sort gate) for the entries below, preserving their order.
1. RVQLVESGGGLVQAGGSLRLSCAASGRIFSYKAMGWYRQAPGKERELVAAITFSGGGTYYADSVKGRFTISRDNAKNPVYLQMNSLKPEDTAVYYCNKVSYGYSSYGYWGQGTQVTVSS
2. QVQLVESGGGLVQAGGSLRLSCAASGRIFSFYVMGWYRQAPGKERELVAAISLSGGSTYYADSVKGRFTISRDNAMNTVYLQMNSLKPEDTAVYYCNAVLYARQRDRWARYDYWGQGTQVTVSS
3. QVQLVESGGGLVQAGGSLRLSCAASGFIFSYYVMGWYRQAPGKERELVAAINESGGRTYYADSVKGRFTISRDNAKNTVYLQMNSLKQEDTAVYYCAASVLNKIQGYRDYYWGQGTKVTVSS

Ans.
1: low polyreactivity; 2: high polyreactivity; 3: low polyreactivity
